assay.system: Menin MLL 4-43 (Homo sapiens)
Construct: 6His
Sequence (O00255 whole entry): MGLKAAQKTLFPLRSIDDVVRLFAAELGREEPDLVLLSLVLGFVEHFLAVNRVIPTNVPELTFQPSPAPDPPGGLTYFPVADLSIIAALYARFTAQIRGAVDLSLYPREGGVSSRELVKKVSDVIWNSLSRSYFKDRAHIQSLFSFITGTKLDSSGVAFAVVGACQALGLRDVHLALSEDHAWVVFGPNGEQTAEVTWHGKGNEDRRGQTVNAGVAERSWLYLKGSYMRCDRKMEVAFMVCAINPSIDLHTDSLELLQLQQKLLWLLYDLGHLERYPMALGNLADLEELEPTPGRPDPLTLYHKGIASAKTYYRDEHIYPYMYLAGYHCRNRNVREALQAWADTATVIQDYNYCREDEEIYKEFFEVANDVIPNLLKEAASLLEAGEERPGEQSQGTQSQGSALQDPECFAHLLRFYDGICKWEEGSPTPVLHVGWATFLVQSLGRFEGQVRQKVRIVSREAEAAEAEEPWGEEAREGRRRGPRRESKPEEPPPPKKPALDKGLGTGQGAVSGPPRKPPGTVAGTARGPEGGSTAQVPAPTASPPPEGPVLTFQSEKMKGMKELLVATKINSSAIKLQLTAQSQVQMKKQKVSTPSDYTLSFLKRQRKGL
experimental.protocol: Inhibition of the menin-MLL interaction (Menin MLL 4-43 IC50)
Assay type: binding
test.conditions: Formula III inhibitors of menin (Table 4h)
pIC50: −log10 of the molar value.
measured.endpoint: pIC50

Q: Given the molecule Cc1c(CN2CCC(Nc3ncnc4sc(CC(F)(F)F)cc34)C(F)(F)C2)ccc2[nH]c(C#N)cc12 (stereo not shown) , what is its reported pIC50?
Result: < 5.00

---

assay.system: Menin MLL 4-43 (Homo sapiens)
Construct: 6His
experimental.protocol: Inhibition of the menin-MLL interaction (Menin MLL 4-43 IC50)
Format: binding
test.conditions: Formula II inhibitors of menin (Table 4G)
Recorded IC50 values for a group of molecules are listed next.

Use the examples below as a reference point.
Cc1c(CN2CCC(Nc3nc(N)nc4sc(CC(F)(F)F)cc34)CC2)ccc2[nH]c(C#N)cc12 [II-3] ... ≤ 100 nM
Cc1c(CN2CCC(Nc3nc(C(F)(F)F)nc4sc(CC(F)(F)F)cc34)CC2)ccc2[nH]c(C#N)cc12 [II-11] ... 100 to 1000 nM
Cc1c(CN2CCC(Nc3nc(N)nc4sc(CC(F)(F)F)cc34)CC2)ccc2c1cc(C#N)n2Cc1cn[nH]c1 [II-4] ... ≤ 100 nM
C=Cc1nc(NC2CCN(Cc3ccc4[nH]c(C#N)cc4c3C)CC2)c2cc(CC(F)(F)F)sc2n1 [II-15] ... 100 to 1000 nM

Q: Given the molecule Cc1c(CN2CCC(Nc3nc(N)nc4sc(CC(F)(F)F)cc34)CC2)ccc2c1cc(C#N)n2Cc1cc[nH]n1 [II-16] , what is its reported IC50?
Result: 100 to 1000 nM
